- protocol-details: soluble fraction after stress (log2 fold change); higher = more stays soluble; pooled small domains, quantitative proteomics
- recorded-conditions: stress: 50 degC
I'd be grateful if you could share measured soluble fraction (log2) for these entries.

Bench note: what soluble fraction (log2) did `HMSSIYVYPNPTANRIYIQADNIKKAELFDLMGRKVRSTNQPQIDISRLSRGNYILQVKTQNNTQSFKIIK` show?
-0.476

Try `HMEIMELPEYVVRSGSGLDAFREKWDLWDQGLMYDLKDKRAVFPIFIDGVMIDAVGRALAGAEPKWLRYTG` next.
-0.165

Try `HMSHKYKLTVPETGEGTRVDKFLSSALTELSRTRLKSLIEEGQVTLGGVKLTNPSHRVKSGDELNIEIPVP` next.
0.146

Try `HMTIGEALLNLRKQLGLNQTEMAANVVSTSFYSKVERNIHDIGTKDLLQILNKHQINATYFFENLN` next.
-1.91

Try `HMTVKEVGYDTFLTMLDKKEIKQVQVEDNQIIFSDNADPVNYYKTGVFNDPDLVNRLQDAGVEFG` next.
0.312

Try `HMVDALYGQGARVMRDFSEGSGIVKLDNGETWTGRLSPAASGASLYVGDRVIVTRIDGAIAEVTPP` next.
-0.0539

Try `HMAQLVVTVDKLNKRTAIPVTLSDKSSNDSVVEKGFRFEGFPFVNTATNGKKWYKDREGFFYWAGGLMEEA` next.
0.0125

Try `HMDIINLADNIARLRRRRQITQEELADYLGVTKAAVSKWENRQTMPDILLLPRLAGLFEVTIDELVGY` next.
-1.42

----------
- protocol-details: soluble fraction after stress (log2 fold change); higher = more stays soluble; pooled small domains, quantitative proteomics
- recorded-conditions: stress: 50 degC
I'd be grateful if you could share measured soluble fraction (log2) for these entries.

Bench note: what soluble fraction (log2) did `HMKNLADNIVALRKKHGLSQEQFAEKIDVTRQAVSNWERRIATPDVETIDLIAKLFDTDLTALVNG` show?
-0.0311

Try `HMKSARDDILSALDKAGEPLSMKDIAELSGRKLSTLRAQMTRLVAEGAVQATAAAHSPDRKYRK` next.
-0.0859

Try `HMGQGAASAPLRELGVDPVSEKQMVLKDGRFGPYVTDGETNASLRKGDEVETITDERASELLQMRRDAGPS` next.
-0.195

Try `HMAMSDFDALSNRISTLSQGRASAVRMKDGIVSLVLDIGGLSAEERKAMTAAIEGEGRGYPSVTQVRILET` next.
0.0462

----------
- protocol-details: soluble fraction after stress (log2 fold change); higher = more stays soluble; pooled small domains, quantitative proteomics
- recorded-conditions: stress: 50 degC
Kind request: treat 0.06 as inclusive, so soluble fraction (log2) at 0.06 or higher is yes, anything lower is no.

Please check the record `HMDFNDPTMEKSLVELPAMSNSTLRDLSENNIKKLEELAEMSVGELMDIASKISESDASALIMEARKPWF` and state if its soluble fraction (log2) is at or above 0.06.
no

Try `HMTGQHFDLEDTDGNLVYEIDSTVPLKTFYIYDAMHTEIFRMTKELLHALPTYRFYLYGEPYGVLKKQ` next.
no

Try `HMDTNVKLLSPKQADFFASKLANNQNFSSKFAKVGEDMQPFIERISSELQQDISQVIVYMPYLLESGFKQ` next.
yes

Try `HMSFKQARFMMDAANGKALAWLYSHAEVLDRKDQGENIEIHVMISPADLSRFVNAFGYQPVQS` next.
no

Try `HMRVGISRNSGAAGIAVWLTQKLGRPVAKTEEIVHILKNWVDDQYEAGRVTNIGDGELWSVYKQMEAEE` next.
no

Try `HMSLLQDRQRHEALAALGYYRGSVSAAWGAASVEALKAAQAALGVEVDGKWGPKTEDVIQAALGT` next.
no

Try `HMQKLSPKQRRGNIIELIKENPTITAKNISTIFNLNQRTIERDLAKLTEEGYIKYEGSSKDGKWVFL` next.
yes

Try `HMKDIIVLGAIQAGIKKFDKIQKMTQIEPEELNSILEQLENRGFIQVAEKSGLLGKKIEILVTEKGSNEVD` next.
yes

Try `HMIDLPEAFIQQLKEAVDVGDVTGLRELLGQLRRRYPQQSALSDEAERLLREFDFERLAQLFEGLD` next.
no

Try `HMELADLPSAQIREILAYVYRAPLEKRRDPSIHWLLIAAHKLTLPLLDRLDPADARALGERYGADYP` next.
yes

Try `HMRQVFPNPSSSQIKLASSRIGQAFSILDQQGRVVLSGKVSEEAVIALENLAKGIYVLKIGSWSETILK` next.
no

Try `HMAPASADQLIDQLNEKVKAKDDKGVAALLTAAQTKMAELAQKDPKEAQAYVAKLQQWMQSNSENIKAALK` next.
yes

Try `HMRKDRKVLMERGRHIFNDLLEKEGIVATNQLMTKLLASHHLRNRDELYLMLANDDISLSSKEIKDLS` next.
no

Try `HMNPTLPYGFAKRHGVILLEAGEVAVVGLREGADPAALIETRRALGRPLRVEPLDQATFDRRLSQVYA` next.
no

Try `HMTATSKKAAWDEVNKIFPTDYERSAAESERAGYAIFRSTAEGVNAWISDLGDRLEINLPDGKTVNIWIEE` next.
no

Try `HMDISKTLGKNPLLIIDNIEYRGKTLDEITAMTGVKRFENIDIYGSEEAMKTYGEKAKDGVIIAYTT` next.
no
